Assayed system: HIV-1 RT-associated RNase H (Human immunodeficiency virus type 1 group M subtype B)
Construct: Human immunodeficiency virus type 1 heterodimeric RT was expressed and purified
Assay method text: HIV-1 RT-associated RNase H assay (fluorescent RNA/DNA hybrid)
Method: Human immunodeficiency virus type 1 heterodimeric RT was expressed and purified as previously described ([Esposito et al., 2011]; [Meleddu et al., 2014]). The HIV-1 RT-associated RNase H activity was measured as described ([Corona et al., 2014a]; [Meleddu et al., 2015]). Briefly, 20 ng of HIV-1 RT was incubated in 100 μL reaction volume containing 50 mM Tris-HCl (pH 7.8), 6 mM MgCl2, 1 mM DTT, 80 mM KCl, hybrid RNA/DNA (5′-[…]-3′-Fluorescein, 5′-[…]-3′-Dabcyl) and 2 nM RT. […]
Rule: IC50 below 2 µM gives TRUE. Equal to or above 2 µM gives FALSE.

{"Compound": "COc1cc(C(=O)N/N=C/c2cc(O)ccc2O)cc(OC)c1OC", "Assayed system": "HIV-1 RT-associated RNase H (Human immunodeficiency virus type 1 group M subtype B)", "Category": "FALSE"}
{"Compound": "O=C(N/N=C/c1cc(O)ccc1O)c1cc(O)c(O)c(O)c1", "Assayed system": "HIV-1 RT-associated RNase H (Human immunodeficiency virus type 1 group M subtype B)", "Category": "FALSE"}
{"Compound": "O=C(N/N=C/c1cc(O)c(O)c(O)c1)c1ccccc1O", "Assayed system": "HIV-1 RT-associated RNase H (Human immunodeficiency virus type 1 group M subtype B)", "Category": "FALSE"}
{"Compound": "CCOC(=O)C(=O)CC(=O)/C=C/c1cccn1Cc1ccc(F)cc1 [RDS1643, reference compound]", "Assayed system": "HIV-1 RT-associated RNase H (Human immunodeficiency virus type 1 group M subtype B)", "Category": "FALSE"}
{"Compound": "O=C(N/N=C/c1cccc(O)c1O)c1ccccc1O", "Assayed system": "HIV-1 RT-associated RNase H (Human immunodeficiency virus type 1 group M subtype B)", "Category": "FALSE"}
{"Compound": "O=C(N/N=C/c1cc(O)c(O)cc1O)c1ccccc1O", "Assayed system": "HIV-1 RT-associated RNase H (Human immunodeficiency virus type 1 group M subtype B)", "Category": "FALSE"}
{"Compound": "O=C(N/N=C/c1cc(O)c(O)cc1O)c1cc(O)c(O)c(O)c1", "Assayed system": "HIV-1 RT-associated RNase H (Human immunodeficiency virus type 1 group M subtype B)", "Category": "TRUE"}
{"Compound": "COc1cccc(/C=N/NC(=O)c2cc(O)c(O)c(O)c2)c1O", "Assayed system": "HIV-1 RT-associated RNase H (Human immunodeficiency virus type 1 group M subtype B)", "Category": "TRUE"}
{"Compound": "COc1cccc(/C=N/NC(=O)c2ccccc2O)c1O", "Assayed system": "HIV-1 RT-associated RNase H (Human immunodeficiency virus type 1 group M subtype B)", "Category": "FALSE"}

###

Assayed system: HIV-1 IN in presence of LEDGF/p75 (Human immunodeficiency virus type 1 group M subtype B)
Sequence (O75475 whole entry, other chains not shown): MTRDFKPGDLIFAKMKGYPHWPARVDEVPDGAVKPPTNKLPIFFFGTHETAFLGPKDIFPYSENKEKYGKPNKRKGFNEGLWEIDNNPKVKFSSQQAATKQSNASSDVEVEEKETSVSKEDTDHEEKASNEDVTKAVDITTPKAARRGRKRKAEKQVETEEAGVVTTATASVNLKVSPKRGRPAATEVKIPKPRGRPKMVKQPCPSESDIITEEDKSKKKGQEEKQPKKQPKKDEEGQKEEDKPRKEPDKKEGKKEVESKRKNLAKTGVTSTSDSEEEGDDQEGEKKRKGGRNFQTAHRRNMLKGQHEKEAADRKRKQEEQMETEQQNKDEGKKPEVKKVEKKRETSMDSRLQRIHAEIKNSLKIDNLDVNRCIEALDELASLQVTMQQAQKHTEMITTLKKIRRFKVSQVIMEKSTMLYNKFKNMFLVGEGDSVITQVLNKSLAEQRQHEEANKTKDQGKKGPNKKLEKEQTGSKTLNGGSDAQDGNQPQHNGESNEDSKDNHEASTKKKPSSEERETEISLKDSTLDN
Assay method text: HIV-1 IN/LEDGF HTRF LEDGF-dependent integration assay
pIC50: −log10 of the molar value.
# label = fulfilled if pIC50 >= 5 else not fulfilled

{"Mol smiles": "COc1cccc(/C=N/NC(=O)c2cc(O)c(O)c(O)c2)c1O", "Category": "not fulfilled"}
{"Mol smiles": "O=C(N/N=C/c1ccccc1O)c1cc(O)c(O)c(O)c1", "Category": "not fulfilled"}
{"Mol smiles": "O=C(N/N=C/c1cccc(O)c1O)c1ccccc1", "Category": "not fulfilled"}
{"Mol smiles": "O=C(N/N=C/c1cc(O)c(O)cc1O)c1ccccc1O", "Category": "not fulfilled"}
{"Mol smiles": "COc1ccc(O)c(/C=N/NC(=O)c2cc(O)c(O)c(O)c2)c1", "Category": "not fulfilled"}
{"Mol smiles": "O=C(N/N=C/c1ccccc1)c1cc(O)c(O)c(O)c1", "Category": "not fulfilled"}
{"Mol smiles": "O=C(N/N=C/c1cc(O)ccc1O)c1cc(O)c(O)c(O)c1", "Category": "not fulfilled"}
{"Mol smiles": "O=C(N/N=C/c1cc(O)c(O)c(O)c1)c1cc(O)c(O)c(O)c1", "Category": "fulfilled"}
{"Mol smiles": "O=C(N/N=C/c1cccc(O)c1O)c1cc(O)c(O)c(O)c1", "Category": "not fulfilled"}
{"Mol smiles": "O=C(N/N=C/c1cc(O)c(O)c(O)c1)c1ccccc1O", "Category": "not fulfilled"}
{"Mol smiles": "O=C(N/N=C/c1ccc(O)cc1O)c1cc(O)c(O)c(O)c1", "Category": "not fulfilled"}
{"Mol smiles": "COc1cccc(/C=N/NC(=O)c2ccccc2O)c1O", "Category": "not fulfilled"}
{"Mol smiles": "O=C(N/N=C/c1ccc(O)c(O)c1O)c1cc(O)c(O)c(O)c1", "Category": "fulfilled"}
{"Mol smiles": "O=C(N/N=C/c1ccc(O)c(O)c1O)c1ccccc1O", "Category": "fulfilled"}
{"Mol smiles": "CCCCCCCC(=O)N/N=C/c1cccc(O)c1O", "Category": "not fulfilled"}
